molecular target: Histone-lysine N-methyltransferase EZH2 [Y641N] (UniProt Q15910, Y641N); test: Test on EZH2 (Y641F) and EZH2 (Y641N) Inhibitory Activities
Sequence (Q15910 whole entry Y641N): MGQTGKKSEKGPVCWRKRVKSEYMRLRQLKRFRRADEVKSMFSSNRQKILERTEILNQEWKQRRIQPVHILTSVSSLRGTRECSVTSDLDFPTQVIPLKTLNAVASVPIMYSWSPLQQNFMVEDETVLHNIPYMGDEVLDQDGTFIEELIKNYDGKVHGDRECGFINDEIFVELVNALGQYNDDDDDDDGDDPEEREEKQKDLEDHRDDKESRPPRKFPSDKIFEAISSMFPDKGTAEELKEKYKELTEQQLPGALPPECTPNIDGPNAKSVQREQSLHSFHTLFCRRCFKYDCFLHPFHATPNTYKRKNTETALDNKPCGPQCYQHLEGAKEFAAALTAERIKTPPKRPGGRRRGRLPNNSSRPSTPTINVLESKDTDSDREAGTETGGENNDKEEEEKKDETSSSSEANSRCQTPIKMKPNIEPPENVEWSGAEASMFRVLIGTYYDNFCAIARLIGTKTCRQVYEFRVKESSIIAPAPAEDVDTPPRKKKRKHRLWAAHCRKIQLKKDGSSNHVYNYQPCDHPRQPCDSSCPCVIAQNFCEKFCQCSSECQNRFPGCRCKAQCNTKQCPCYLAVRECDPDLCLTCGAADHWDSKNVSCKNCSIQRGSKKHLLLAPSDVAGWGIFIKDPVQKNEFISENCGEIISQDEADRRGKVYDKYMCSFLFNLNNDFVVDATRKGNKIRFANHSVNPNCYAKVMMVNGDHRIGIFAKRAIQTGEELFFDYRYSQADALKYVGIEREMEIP
Experimental Readout: pIC50
# reply with the number alone; pIC50 is -log10 of concentration in mol/L

stdin: Could you share which pIC50 value was measured for CCN(c1cc(O[C@H]2C[C@H](N3CCCCC3)C2)cc(C(=O)NCc2c(CO)cc(C)[nH]c2=O)c1C)C1CCC(F)(F)CC1 [US12390472, Example 95] ?
stdout: 8.51
